- tested.system: AMPK
- assay.explanation: AMPK activation, enzyme-linked immunosorbent assay
- Format: biochemical
- condition.summary: Table 2, ELISA
property.name: EC50

These solved cases illustrate the format of a correct answer.
{"molecule": "N#Cc1ccc(CN2CCC(NC(=O)c3ccc4[nH]c5c(c4c3)CN(S(=O)(=O)c3cccnc3)CC5)CC2)cc1 [Compound 26]", "property.name": "EC50", "observed.measurement": "10 to 50 µM"}
{"molecule": "O=C(NC1CCN(C(=O)Nc2ccc(C(F)(F)F)cc2)CC1)c1ccc2[nH]c3c(c2c1)CN(Cc1ccc(C(F)(F)F)cc1)CC3 [Compound 33]", "property.name": "EC50", "observed.measurement": "1 to 5 µM"}
{"molecule": "NC(=O)c1ccc(CN2CCc3[nH]c4ccc(C(=O)NC5CCN(Cc6ccncc6)CC5)cc4c3C2)cc1 [Compound 45]", "property.name": "EC50", "observed.measurement": "> 100 µM"}

// sample O=C(NC1CCN(CCc2ccccc2)CC1)c1ccc2[nH]c3c(c2c1)CN(Cc1ccc(C(F)(F)F)cc1)CC3 [Compound 14] , its EC50 was < 0.5 µM

// sample NC(=O)c1ccc(CN2CCC(NC(=O)c3ccc4[nH]c5c(c4c3)CN(Cc3ccc(C(N)=O)cc3)CC5)CC2)cc1 [Compound 49] , its EC50 was > 100 µM

// sample Cn1c2c(c3cc(C(=O)NC4CCN(Cc5cccnc5)CC4)ccc31)CN(Cc1ccc(C(F)(F)F)cc1)CC2 [Compound 18] , its EC50 was 1 to 5 µM

---

- tested.system: AMPK
- assay.explanation: AMPK activation, enzyme-linked immunosorbent assay
- Format: biochemical
- condition.summary: Table 2, ELISA
pEC50: −log10 of the molar value.
property.name: pEC50

These solved cases illustrate the format of a correct answer.
{"mol": "NC(=O)c1ccc(CN2CCC(NC(=O)c3ccc4[nH]c5c(c4c3)CN(Cc3ccc(C(F)(F)F)cc3)CC5)CC2)cc1", "property.name": "pEC50", "observed.measurement": "5.30 to 6.00"}
{"mol": "N#Cc1ccc(CN2CCC(NC(=O)c3ccc4[nH]c5c(c4c3)CN(S(=O)(=O)c3ccc(C#N)cc3)CC5)CC2)cc1", "property.name": "pEC50", "observed.measurement": "4.30 to 5.00"}
{"mol": "O=C(NC1CCN(Cc2ccncc2)CC1)c1ccc2[nH]c3c(c2c1)CN(Cc1ccc(C(F)(F)F)cc1)CC3", "property.name": "pEC50", "observed.measurement": "> 6.30"}
{"mol": "O=C(NC1CCN(Cc2ccc(C(F)(F)F)cc2)CC1)c1ccc2[nH]c3c(c2c1)CN(c1ccc(F)cc1)CC3", "property.name": "pEC50", "observed.measurement": "5.00 to 5.30"}

// sample `O=C(NC1CCN(C(=O)c2cccnc2)CC1)c1ccc2[nH]c3c(c2c1)CN(c1ccc(F)cc1)CC3` , its pEC50 was < 4.00

// sample `N#Cc1ccc(CN2CCC(NC(=O)c3ccc4[nH]c5c(c4c3)CN(S(=O)(=O)c3ccc(C(F)(F)F)cc3)CC5)CC2)cc1` , its pEC50 was 5.30 to 6.00

---

- tested.system: AMPK
- assay.explanation: AMPK activation, enzyme-linked immunosorbent assay
- Type: biochemical
- condition.summary: Table 2, ELISA
property.name: EC50

These solved cases illustrate the format of a correct answer.
{"mol": "O=C(NC1CCN(S(=O)(=O)c2ccc(F)cc2)CC1)c1ccc2[nH]c3c(c2c1)CN(Cc1ccc(C(F)(F)F)cc1)CC3", "tested.system": "AMPK", "observed.measurement": "1 to 5 µM"}
{"mol": "O=C(NC1CCN(Cc2ccccc2)CC1)c1ccc2[nH]c3c(c2c1)CN(S(=O)(=O)c1ccc(C(F)(F)F)cc1)CC3", "tested.system": "AMPK", "observed.measurement": "> 100 µM"}
{"mol": "O=C(NC1CCN(Cc2ccccc2)CC1)c1ccc2[nH]c3c(c2c1)CN(C(=O)OCc1ccccc1)CC3", "tested.system": "AMPK", "observed.measurement": "10 to 50 µM"}

// sample `O=C(NC1CCN(Cc2cocn2)CC1)c1ccc2[nH]c3c(c2c1)CN(Cc1ccc(C(F)(F)F)cc1)CC3` , its EC50 was < 0.5 µM

// sample `O=C(NC1CCN(S(=O)(=O)c2ccc(C(F)(F)F)cc2)CC1)c1ccc2[nH]c3c(c2c1)CN(Cc1ccc(C(F)(F)F)cc1)CC3` , its EC50 was 1 to 5 µM

// sample `O=C(NC1CCN(S(=O)(=O)c2ccc(F)cc2)CC1)c1ccc2[nH]c3c(c2c1)CN(c1ccc(F)cc1)CC3` , its EC50 was 10 to 50 µM

// sample `O=C(NC1CCN(S(=O)(=O)c2ccc(Cl)cc2)CC1)c1ccc2[nH]c3c(c2c1)CN(Cc1ccc(C(F)(F)F)cc1)CC3` , its EC50 was 1 to 5 µM

// sample `N#Cc1ccc(CN2CCC(NC(=O)c3ccc4[nH]c5c(c4c3)CN(Cc3ccc(C(F)(F)F)cc3)CC5)CC2)cc1` , its EC50 was < 0.5 µM

---

- tested.system: AMPK
- assay.explanation: AMPK activation, enzyme-linked immunosorbent assay
- Format: biochemical
- condition.summary: Table 2, ELISA
pEC50: −log10 of the molar value.
property.name: pEC50

These solved cases illustrate the format of a correct answer.
{"compound": "N#Cc1ccc(CN2CCC(NC(=O)c3ccc4[nH]c5c(c4c3)CN(C(=O)OCc3ccccc3)CC5)CC2)cc1 [Compound 1]", "pEC50": "5.30 to 6.00"}
{"compound": "NC(=O)c1ccc(CN2CCc3[nH]c4ccc(C(=O)NC5CCN(Cc6ccc(F)cc6)CC5)cc4c3C2)cc1 [Compound 48]", "pEC50": "< 4.00"}

pEC50 on AMPK for N#Cc1ccc(S(=O)(=O)N2CCC(NC(=O)c3ccc4[nH]c5c(c4c3)CN(Cc3ccc(C(F)(F)F)cc3)CC5)CC2)cc1 [Compound 21] is 6.00 to 6.30
